Could you please report measured IC50 for the items listed next?
System: HCT116
Assay: Cytotoxicity, propidium iodide assay, HCT116
Type: cell-based
Conditions: Homo sapiens, HCT-116; Colon, HCT116, 48 hours treatment; read-out: IC50, C4a (HCT116)
Method: The assay was designed as in the reference, Anticancer Drugs, 2002, 13, 1-8, the disclosure of which is incorporated by reference for the teaching of the assay. Cells from cell lines as mentioned in the table given below were seeded at a density of 3000 cells/well in a white opaque 96-well plate. […] For analysis, the plates were brought to RT, allowed to thaw and were read in PoleStar fluorimeter with the fluorescence setting. […] IC50 values were calculated from graphs plotted using these percentages. […]

Recorded IC50, per entry:
[[record]]
compound = "C/C=C/C(=O)n1c(=O)n(-c2ccc(C(C)(C)C#N)cc2)c2c3cc(C)ccc3ncc21 [Example 39]"
system = "HCT116"
measurementkind = "IC50"
datavalue = "> 3000 nM"

[[record]]
compound = "CC(=O)n1c(=O)n(-c2ccc(C(C)(C)C#N)cc2)c2c3cc(Cl)ccc3ncc21 [Example 36]"
system = "HCT116"
measurementkind = "IC50"
datavalue = "> 3000 nM"


Below are some compounds; for each one, tell me its IC50.
1. Cc1cc(C)cc(S(=O)(=O)n2c(=O)n(-c3ccc(C(C)(C)C#N)cc3)c3c4cc(Br)ccc4ncc32)c1 [Example 6]
2. Cc1ccc(S(=O)(=O)n2c(=O)n(-c3ccc(C(C)(C)C#N)cc3)c3c4cc(Br)ccc4ncc32)cc1F [Example 5]
3. CC(C)(C#N)c1ccc(-n2c(=O)n(S(=O)(=O)c3cccc(Br)c3)c3cnc4ccc(Br)cc4c32)cc1 [Example 15]

["> 3000 nM", "> 3000 nM", "1000 to 3000 nM"]

* * *

System: H460
Test: Cytotoxicity, propidium iodide assay, H460
Assay type: cell-based
Settings: Homo sapiens, NCI-H460; Lung, H460, 48 hours treatment; read-out: IC50, C1b (H460)
Could you please report measured IC50 for the items listed next?

[[record]]
smilesentry = "CC(C)(C#N)c1ccc(-n2c(=O)n(C(=O)c3ccccc3)c3cnc4ccc(Cl)cc4c32)cc1"
datavalue = "1 to 3 µM"

[[record]]
smilesentry = "Cc1cccc(S(=O)(=O)n2c(=O)n(-c3ccc(C(C)(C)C#N)cc3)c3c4cc(Br)ccc4ncc32)c1"
datavalue = "≤ 1 µM"

[[record]]
smilesentry = "CC(C)(C#N)c1ccc(-n2c(=O)n(C(=O)c3ccccc3)c3cnc4ccc(Br)cc4c32)cc1"
datavalue = "≤ 1 µM"

[[record]]
smilesentry = "CC(C)(C#N)c1ccc(-n2c(=O)n(S(=O)(=O)c3ccccc3C#N)c3cnc4ccc(Br)cc4c32)cc1"
datavalue = "≤ 1 µM"


Shift focus to the following entry.
Please tell me: IC50 of C/C=C/C(=O)n1c(=O)n(-c2ccc(C(C)(C)C#N)cc2)c2c3cc(Br)ccc3ncc21 , system H460?
≤ 1 µM

* * *

Tested on: A2780
Experiment: Cytotoxicity, propidium iodide assay, A2780
Assay type: cell-based
Details: Homo sapiens; Ovarian, A2780, 48 hours treatment; read-out: IC50, C3a (A2780)
Could you please report measured IC50 for the items listed next?

[[record]]
smilesentry = "CC(C)(C#N)c1ccc(-n2c(=O)n(S(=O)(=O)c3ccc(F)cc3F)c3cnc4ccc(Br)cc4c32)cc1"
measurementkind = "IC50"
datavalue = "≤ 1000 nM"

[[record]]
smilesentry = "CC(C)(C#N)c1ccc(-n2c(=O)n(S(=O)(=O)c3ccccc3C#N)c3cnc4ccc(Br)cc4c32)cc1"
measurementkind = "IC50"
datavalue = "≤ 1000 nM"

[[record]]
smilesentry = "CC(=O)c1ccc(S(=O)(=O)n2c(=O)n(-c3ccc(C(C)(C)C#N)cc3)c3c4cc(Br)ccc4ncc32)cc1"
measurementkind = "IC50"
datavalue = "1000 to 3000 nM"


Consider the compound CC(C)(C#N)c1ccc(-n2c(=O)n(C(=O)c3ccccc3)c3cnc4ccc(Br)cc4c32)cc1 and give its measured IC50.
≤ 1000 nM
